# Test system: NCI-H1975
# Test Summary: cells
# Assay type: functional, cell-based
# Particulars: Homo sapiens
Readout Kind: pIC50
pIC50 here is simply -log10 of the concentration when that concentration is written in mol/L.

Ask: Returns the measured pIC50 for the input compound. Input: C=CC(=O)Nc1ccc2ncnc(Nc3cccc(C)c3F)c2c1
Reply: 6.41

Ask: Returns the measured pIC50 for the input compound. Input: C=CC(=O)N1CCc2c(sc3ncnc(Nc4ccc(CC)cc4)c23)C1
Reply: 4.82

Ask: Returns the measured pIC50 for the input compound. Input: C=CC(=O)Nc1ccc2ncnc(Nc3ccc(OC)cc3OC)c2c1
Reply: 4.86

Ask: Returns the measured pIC50 for the input compound. Input: C=CC(=O)Nc1ccc2ncnc(Nc3ccc(CC)cc3)c2c1
Reply: 4.80

Ask: Returns the measured pIC50 for the input compound. Input: C=CC(=O)Nc1ccc2ncnc(Nc3ccc(Br)c(OC)c3)c2c1
Reply: 6.40

Ask: Returns the measured pIC50 for the input compound. Input: C=CC(=O)Nc1ccc2ncnc(Nc3cccc(CC)c3)c2c1
Reply: 6.17

Ask: Returns the measured pIC50 for the input compound. Input: C=CC(=O)N1CCc2c(sc3ncnc(Nc4cccc(C)c4F)c23)C1
Reply: 4.47

====

# Test Summary: Cytotoxicity against human SKBR3 cells expressing wild type EGFR assessed as growth inhibition incubated for 1 hr prior to EGF challenge measured after 72 hrs by luciferase reporter gene assay
# Assay type: functional, cell-based
# Particulars: SK-BR-3
pIC50: −log10 of the molar value.
Rule: pIC50 of 6 or more gives yes; anything lower gives no.

Ask: Test whether the molecule C=CC(=O)Nc1ccc2ncnc(Nc3ccc(OC)cc3OC)c2c1 records pIC50 of 6 or higher.
Reply: no

Ask: Test whether the molecule C=CC(=O)Nc1ccc2ncnc(Nc3ccc(S(=O)(=O)Nc4nccs4)cc3)c2c1 records pIC50 of 6 or higher.
Reply: no

Ask: Test whether the molecule C=CC(=O)N1CCc2c(sc3ncnc(NC4CCCCC4)c23)C1 records pIC50 of 6 or higher.
Reply: no

Ask: Test whether the molecule C=CC(=O)N1CCc2c(sc3ncnc(Nc4ccc(Br)cc4F)c23)C1 records pIC50 of 6 or higher.
Reply: no

Ask: Test whether the molecule C=CC(=O)N1CCc2c(sc3ncnc(Nc4cccc(CC)c4)c23)C1 records pIC50 of 6 or higher.
Reply: no

Ask: Test whether the molecule C=CC(=O)Nc1ccc2ncnc(Nc3cccc(Br)c3)c2c1 records pIC50 of 6 or higher.
Reply: yes

Ask: Test whether the molecule C=CC(=O)Nc1ccc2ncnc(Nc3ccc(Br)c(OC)c3)c2c1 records pIC50 of 6 or higher.
Reply: yes

Ask: Test whether the molecule C=CC(=O)Nc1ccc2ncnc(Nc3ccc(S(=O)(=O)Nc4ccccn4)cc3)c2c1 records pIC50 of 6 or higher.
Reply: yes

Ask: Test whether the molecule C=CC(=O)Nc1ccc2ncnc(Nc3ccc(S(=O)(=O)NC(=N)N)cc3)c2c1 records pIC50 of 6 or higher.
Reply: no

====

# Measurement Target: Epidermal growth factor receptor (Homo sapiens)
# Sequence (P00533 whole entry): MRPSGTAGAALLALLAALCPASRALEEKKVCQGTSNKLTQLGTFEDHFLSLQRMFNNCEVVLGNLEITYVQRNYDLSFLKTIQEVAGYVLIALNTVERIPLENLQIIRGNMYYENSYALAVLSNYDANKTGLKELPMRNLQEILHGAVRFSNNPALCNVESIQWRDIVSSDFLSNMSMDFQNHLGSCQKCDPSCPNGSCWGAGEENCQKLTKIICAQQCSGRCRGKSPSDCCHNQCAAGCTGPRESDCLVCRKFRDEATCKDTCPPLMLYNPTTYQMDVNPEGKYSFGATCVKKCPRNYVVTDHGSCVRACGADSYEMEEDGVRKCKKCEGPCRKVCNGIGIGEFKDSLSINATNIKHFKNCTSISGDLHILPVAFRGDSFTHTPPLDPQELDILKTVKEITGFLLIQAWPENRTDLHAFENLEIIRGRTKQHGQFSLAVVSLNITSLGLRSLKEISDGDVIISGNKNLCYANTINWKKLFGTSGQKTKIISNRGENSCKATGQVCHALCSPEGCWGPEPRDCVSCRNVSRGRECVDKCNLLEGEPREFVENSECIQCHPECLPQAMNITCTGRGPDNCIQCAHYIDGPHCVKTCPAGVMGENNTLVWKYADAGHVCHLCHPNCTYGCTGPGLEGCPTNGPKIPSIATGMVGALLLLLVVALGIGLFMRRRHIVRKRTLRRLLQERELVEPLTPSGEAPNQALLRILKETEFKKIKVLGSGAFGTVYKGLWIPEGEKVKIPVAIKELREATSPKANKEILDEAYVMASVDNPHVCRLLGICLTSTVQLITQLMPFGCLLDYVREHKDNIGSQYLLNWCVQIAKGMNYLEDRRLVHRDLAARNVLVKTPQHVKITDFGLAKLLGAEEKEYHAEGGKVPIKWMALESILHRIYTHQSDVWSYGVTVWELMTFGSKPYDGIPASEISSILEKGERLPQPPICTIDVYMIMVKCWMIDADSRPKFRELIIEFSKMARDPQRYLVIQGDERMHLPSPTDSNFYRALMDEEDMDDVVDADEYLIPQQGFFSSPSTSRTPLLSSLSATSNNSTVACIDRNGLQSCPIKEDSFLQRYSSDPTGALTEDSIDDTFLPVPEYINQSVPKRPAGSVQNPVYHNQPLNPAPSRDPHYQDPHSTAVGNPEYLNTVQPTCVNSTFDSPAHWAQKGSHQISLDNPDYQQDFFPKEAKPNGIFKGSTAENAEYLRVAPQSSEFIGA
# Test Summary: Inhibition of recombinant wild type EGFR kinase(unknown origin) after 30 mins in presence of [gamma32P]ATP
Would you kindly list log10 IC50 for each of these compounds?
Values below are the log10 of the recorded IC50, with nM as the unit.

Ask: Provide the documented log10 IC50 with Epidermal growth factor receptor (Homo sapiens) as the system for C=CC(=O)N1CCc2c(sc3ncnc(Nc4cccc(CC)c4)c23)C1
Reply: 0.94

Ask: Provide the documented log10 IC50 with Epidermal growth factor receptor (Homo sapiens) as the system for C=CC(=O)Nc1ccc2ncnc(Nc3ccc(S(N)(=O)=O)cc3)c2c1
Reply: 1.88

Ask: Provide the documented log10 IC50 with Epidermal growth factor receptor (Homo sapiens) as the system for C=CC(=O)Nc1ccc2ncnc(Nc3c(F)cccc3Br)c2c1
Reply: 0.34

Ask: Provide the documented log10 IC50 with Epidermal growth factor receptor (Homo sapiens) as the system for C=CC(=O)Nc1ccc2ncnc(Nc3ccc(CC)cc3)c2c1
Reply: 0.51

Ask: Provide the documented log10 IC50 with Epidermal growth factor receptor (Homo sapiens) as the system for C=CC(=O)Nc1ccc2ncnc(NC3CCCCC3)c2c1
Reply: 0.53

Ask: Provide the documented log10 IC50 with Epidermal growth factor receptor (Homo sapiens) as the system for C=CC(=O)Nc1ccc2ncnc(Nc3ccc(Br)cc3F)c2c1
Reply: 0.32

Ask: Provide the documented log10 IC50 with Epidermal growth factor receptor (Homo sapiens) as the system for C=CC(=O)Nc1ccc2ncnc(Nc3cccc(C)c3F)c2c1
Reply: 0.18

Ask: Provide the documented log10 IC50 with Epidermal growth factor receptor (Homo sapiens) as the system for C=CC(=O)Nc1ccc2ncnc(Nc3ccccc3CC)c2c1
Reply: 1.28

Ask: Provide the documented log10 IC50 with Epidermal growth factor receptor (Homo sapiens) as the system for C=CC(=O)Nc1ccc2ncnc(Nc3ccc(Br)c(OC)c3)c2c1
Reply: 0.40

Ask: Provide the documented log10 IC50 with Epidermal growth factor receptor (Homo sapiens) as the system for C=CC(=O)N1CCc2c(sc3ncnc(Nc4ccc(Br)cc4F)c23)C1
Reply: 0.57
